Measurement description: Cytotoxicity against HEK293 cells measured after 20 hrs by resazurin dye based fluorescence assay
Type: cell-based
Experimental setup: human
Measured metric: CC50 at 20 h (µg/mL)
Give bare numbers, in µg/mL.

>  <Molecule>
COc1ccc([N+]2=C3CCCCCN3C(O)(c3ccc(-c4ccccc4)cc3)C2)cc1.[Br-] (stereo not given)

>  <CC50 at 20 h (µg/mL)>
2.6

$$$$
>  <Molecule>
Cc1ccc([N+]2=C3CCCCCN3C(O)(c3ccc(-c4ccccc4)cc3)C2)cc1.[Br-] (stereo not given)

>  <CC50 at 20 h (µg/mL)>
2.7

$$$$
>  <Molecule>
OC1(c2ccc(-c3ccccc3)cc2)C[N+](c2ccc3c(c2)OCO3)=C2CCCCCN21.[Br-] (stereo not given)

>  <CC50 at 20 h (µg/mL)>
4.5

$$$$
>  <Molecule>
CCc1ccc(-[n+]2cc(-c3ccc(-c4ccccc4)cc3)n3c2CCCCC3)cc1.[Br-]

>  <CC50 at 20 h (µg/mL)>
1.4

$$$$
>  <Molecule>
OC1(c2ccc(-c3ccccc3)cc2)C[N+](c2ccc(OC(F)F)cc2)=C2CCCCCN21.[Br-] (stereo not given)

>  <CC50 at 20 h (µg/mL)>
5.8

$$$$

Could I get CC50 at 20 h for every one of these entries?
1. COc1ccc([N+]2=C3CCCCCN3C(O)(c3ccc(-c4ccccc4)cc3)C2)c(OC)c1.[Br-] (stereo not given)
2. CCc1ccc([N+]2=C3CCCCCN3C(O)(c3ccc(-c4ccccc4)cc3)C2)cc1.[Br-] (stereo not given)
3. CCOc1ccc(-[n+]2cc(-c3ccc(-c4ccccc4)cc3)n3c2CCCCC3)cc1.[Br-]
4. OC1(c2ccc(-c3ccccc3)cc2)C[N+](c2ccc(Cl)cc2)=C2CCCCCN21.[Br-] (stereo not given)
5. COc1ccccc1[N+]1=C2CCCCCN2C(O)(c2ccc(-c3ccccc3)cc2)C1.[Br-] (stereo not given)

Result string:
1: 2.4; 2: 2.2; 3: 1.7; 4: 3.9; 5: 2.2
